- assay.system: Metabotropic glutamate receptor 5 (Rattus norvegicus, UniProt P31424)
- Sequence (P31424 whole entry): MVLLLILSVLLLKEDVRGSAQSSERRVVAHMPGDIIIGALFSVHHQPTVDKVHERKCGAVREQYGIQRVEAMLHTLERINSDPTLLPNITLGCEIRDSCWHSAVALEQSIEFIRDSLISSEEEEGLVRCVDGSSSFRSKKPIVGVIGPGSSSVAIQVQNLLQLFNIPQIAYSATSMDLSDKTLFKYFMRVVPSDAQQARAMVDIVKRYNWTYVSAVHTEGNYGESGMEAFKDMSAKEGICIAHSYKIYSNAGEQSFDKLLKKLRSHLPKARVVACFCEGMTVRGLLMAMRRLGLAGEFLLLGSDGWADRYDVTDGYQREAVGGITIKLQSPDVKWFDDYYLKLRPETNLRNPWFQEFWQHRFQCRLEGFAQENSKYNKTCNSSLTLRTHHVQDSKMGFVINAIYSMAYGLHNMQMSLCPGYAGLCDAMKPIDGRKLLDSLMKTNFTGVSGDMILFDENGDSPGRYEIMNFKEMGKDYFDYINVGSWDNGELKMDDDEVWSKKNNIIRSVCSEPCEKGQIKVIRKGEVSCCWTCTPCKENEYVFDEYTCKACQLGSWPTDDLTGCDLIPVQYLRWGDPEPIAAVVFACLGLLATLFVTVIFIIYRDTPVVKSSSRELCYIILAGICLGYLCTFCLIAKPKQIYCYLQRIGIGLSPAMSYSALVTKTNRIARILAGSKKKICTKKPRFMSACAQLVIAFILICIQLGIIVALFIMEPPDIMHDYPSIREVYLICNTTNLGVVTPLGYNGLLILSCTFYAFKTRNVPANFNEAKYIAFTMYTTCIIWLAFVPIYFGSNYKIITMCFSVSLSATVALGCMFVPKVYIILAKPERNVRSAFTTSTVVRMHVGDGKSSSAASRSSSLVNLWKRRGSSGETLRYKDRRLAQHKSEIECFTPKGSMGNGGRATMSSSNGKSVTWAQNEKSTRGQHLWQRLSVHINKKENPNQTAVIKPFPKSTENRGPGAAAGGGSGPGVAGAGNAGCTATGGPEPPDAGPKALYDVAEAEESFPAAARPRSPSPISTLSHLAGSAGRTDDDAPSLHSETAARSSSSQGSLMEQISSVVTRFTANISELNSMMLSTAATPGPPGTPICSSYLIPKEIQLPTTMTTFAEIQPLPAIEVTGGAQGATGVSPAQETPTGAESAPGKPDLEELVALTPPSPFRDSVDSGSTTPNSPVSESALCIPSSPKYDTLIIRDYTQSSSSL
pKi: −log10 of the molar value.
attribute.measured: pKi

Exercise: Hi! What's the reported pKi for O=C(Nc1cc(-c2ccccc2)nn1-c1ccccc1F)c1ccc([N+](=O)[O-])cc1 on Metabotropic glutamate receptor 5 (Rattus norvegicus, UniProt P31424)?
Solution: 6.80

P: N#Cc1cccc(C(=O)Nc2cc(-c3ccccc3)nn2-c2ccccc2Br)c1
Q: c1ccc(-c2cn(-c3cc(-c4ccccc4)nn3-c3ccccc3)nn2)cc1
Exercise: Between P and Q , which one shows the larger pKi value? Answer by stating the label of the chosen item.
Solution: P

----------
- assay.system: Metabotropic glutamate receptor 5 (Rattus norvegicus, UniProt P31424)
- assay.info: Activity at mGluR5 assessed as potentiation of glutamate-induced calcium flux in rat astrocytes
pEC50: −log10 of the molar value.
attribute.measured: pEC50

Exercise: # input compound: O=C(Nc1cc(-c2ccccc2)nn1-c1ccccc1)c1ccccc1[N+](=O)[O-] ; wanted: its pEC50
Solution: < 5.00

Exercise: Query N#Cc1cccc(C(=O)Nc2cn(-c3ccccc3)nc2-c2ccccc2)c1 next
Solution: < 5.00

Now for the compound whose pEC50 we want.
Exercise: # input compound: O=C(Nc1cn(-c2ccccc2)nc1-c1ccccc1)c1ccccc1 ; wanted: its pEC50
Solution: < 5.00

----------
- assay.system: Metabotropic glutamate receptor 5 (Rattus norvegicus, UniProt P31424)
- assay.info: Activity at mGluR5 assessed as potentiation of glutamate-induced calcium flux in rat astrocytes
pEC50: −log10 of the molar value.
attribute.measured: pEC50

Exercise: # input compound: COc1cccc(C(=O)Nc2cc(-c3ccccc3)nn2-c2ccccc2)c1 ; wanted: its pEC50
Solution: 6.99

I: N#Cc1ccc(C(=O)N(C(=O)c2ccc(C#N)cc2)c2cc(-c3ccccc3)nn2-c2ccccc2)cc1
II: O=C(Nc1cc(-c2ccccc2)nn1-c1ccccc1Br)c1cccc([N+](=O)[O-])c1
III: N#Cc1ccc(C(=O)/N=c2\cc(-c3ccccc3)n(C(=O)c3ccc(C#N)cc3)n2-c2ccccc2)cc1
IV: O=C(Nc1cc(-c2ccccc2)nn1-c1ccccc1)c1ccccc1
Exercise: Hello, I need these entries ordered by pEC50, highest reading first. Thanks! // format: requested-order list of labels
Solution: III, II, IV, I
(III: 7.37, II: 7.17, IV: 6.69, I: 6.47)
